I'd be grateful if you could share measured composite z-score for these entries.
Test system: Chordin-like protein 2 (CHRDL2)
Assay: CHRDL2 small-molecule binders, primary screen, biochemical, small-molecule microarray, 635 nm fluorescence (AID 1126);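 further: printed compound slides probed with Chrdl2 protein at 4 µg/mL for 1 h at 4 C; score merges 667 nm emission intensity with signal to noise over three replicate slides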
Details: small-molecule microarray binding, fluorescence 635 nm; higher = more signal
Numbers only.

C=CCOC(=O)[C@H]1[C@@H]2C(=O)O[C@@H](c3ccccc3)[C@@H](c3ccccc3)N2[C@@H](c2ccc(OCCOC(=O)[C@@H]3C[C@@H]4C(=O)N[C@@H](Cc5ccccc5)C(=O)N4[C@@H]3c3ccc(O)cc3)cc2)[C@]12C(=O)Nc1ccc(I)cc12 :: 0.915
COc1ccc(C(=O)Nc2ccc(CN3C(=O)[C@]4(O[C@H](CC(=O)N(CCO)Cc5ccccc5)[C@@H]([Si](C)(C)c5ccc(OC)cc5)[C@@H]4C)c4ccccc43)cc2)cc1 :: 1.18
C=CCNC(=O)[C@H]1[C@@H]2C(=O)O[C@@H](c3ccccc3)[C@@H](c3ccccc3)N2[C@@H](c2ccc(O)cc2)[C@]12C(=O)Nc1ccccc12 :: -0.21
C=CCNC(=O)[C@@H]1[C@H]2C(=O)O[C@H](c3ccccc3)[C@H](c3ccccc3)N2[C@H](c2ccc(O)cc2)[C@@]12C(=O)Nc1ccc(C#CC3=CCCCC3)cc12 :: 0.334
C=C(/C=C\CNS(=O)(=O)c1ccc(C)cc1)[C@H](O)[C@H]1CCCN1S(=O)(=O)c1ccccc1[N+](=O)[O-] :: 0.411

Give composite z-score for each of the items listed below.
1. CCCCC=C[C@@H](NC(=O)C(C)(C)C)c1ccccc1
2. [N-]=[N+]=NCc1ccccc1C[C@]1(C(=O)N2CCCCC2)COC(c2ccc(OCCCO)cc2)=N1
3. CCCCC(=C=CC[C@@H](O)c1ccc(OCCO)cc1)CCO
4. O=C(c1ccccc1)N1Cc2ccccc2C[C@@]2(N=C(c3ccc(OCCCO)cc3)O[C@H]2c2ccccc2)C1=O

-0.264
0.0846
-0.346
0.639

Give composite z-score for each of the items listed below.
1. O=C(NC1CC1)[C@@H]1c2ccccc2C(=O)N(C2CCCCC2)[C@H]1c1ccc(CO)cc1
2. O=C1O[C@H](c2ccccc2)[C@H](c2ccccc2)N2[C@H]1[C@@H](C(=O)O)[C@]1(C(=O)Nc3ccc(C#CC4(O)CCCCCC4)cc31)[C@H]2c1ccccc1OCCO
3. CC(C)N1CC=CC23O[C@@H]4/C=C\CCCOC(=O)C4[C@H]2C(=O)N(C(C)CO)[C@@H]3C1=O (some centres undefined)

1. -0.696
2. 0.0298
3. -0.956

Give composite z-score for each of the items listed below.
1. CC(C)(C)OC(=O)CC[C@@]1(C(N)=O)N=C(c2ccc(OCCCO)cc2)O[C@@H]1c1ccccc1CN=[N+]=[N-]
2. CCOC(=O)C[C@H]1[C@H](OC(=O)c2cc3ccccc3oc2=O)[C@@H](NC(=O)c2ccc(-c3ccccc3)cc2)c2cc(OCCCO)ccc2N1C(=O)Cc1ccc(OC)cc1

0.312
0.346

###

Molecular target: E3 ubiquitin-protein ligase XIAP (Homo sapiens) (UniProt P98170)
Sequence (P98170 whole entry, looked up): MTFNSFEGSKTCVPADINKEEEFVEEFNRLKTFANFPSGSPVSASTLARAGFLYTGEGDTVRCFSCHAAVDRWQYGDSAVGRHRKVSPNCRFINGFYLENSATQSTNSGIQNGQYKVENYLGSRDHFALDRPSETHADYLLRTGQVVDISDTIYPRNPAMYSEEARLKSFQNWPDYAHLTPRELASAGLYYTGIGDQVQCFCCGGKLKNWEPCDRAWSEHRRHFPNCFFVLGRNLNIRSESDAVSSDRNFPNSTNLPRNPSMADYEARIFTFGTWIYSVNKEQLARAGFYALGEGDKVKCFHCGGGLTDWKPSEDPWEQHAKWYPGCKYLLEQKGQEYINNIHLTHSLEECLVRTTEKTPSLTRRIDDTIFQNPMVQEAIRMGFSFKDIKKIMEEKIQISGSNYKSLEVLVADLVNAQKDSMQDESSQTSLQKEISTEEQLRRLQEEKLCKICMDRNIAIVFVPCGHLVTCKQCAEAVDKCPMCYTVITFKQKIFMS
Test: XIAP binders, primary screen, biophysical, small-molecule microarray, fluorescence 635 nm (AID 1181);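 further: score merges 667 nm emission and signal to noise over triplicate slides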
Conditions: small-molecule microarray binding, higher = more signal
Is composite z-score at least -0.08? Then True. If not, False.

Illustrative cases are given below, each with its answer.
COC(=O)[C@@]1(Cc2ccc(F)cc2)[C@H]2c3cc(C(=O)N4CCCC4)n(Cc4ccc(OC(F)(F)F)cc4)c3C[C@H]2CN1C(=O)c1ccccc1 :: True
CCCN1C(=O)[C@@]2(c3ccc([N+](=O)[O-])cc3)CC(=O)N(C3CCCCC3)[C@@H]2c2ccc(CO)cc21 :: True
COC(=O)c1c2oc(c1C(=O)OC)C(=O)N[C@H](Cc1ccccc1)Cn1cc(nn1)C1(CCCCC1)NC(=O)N[C@H](CO)CC2 :: False
C[C@]1(C(=O)O)c2ccccc2C(=O)N(Cc2cc(C(F)(F)F)cc(C(F)(F)F)c2)[C@H]1c1ccc(CO)cc1 :: False
COC(=O)[C@@]1(Cc2ccc(F)cc2)[C@H]2c3cc(C(=O)N(C)C)n(CCF)c3C[C@H]2CN1C(=O)c1ccccc1 :: True
COCCCNC(=O)[C@@]1(Cc2ccccc2I)c2ccccc2C(=O)N(Cc2ccccc2C(F)(F)F)[C@H]1c1ccc(CO)cc1 :: False

Kindly consider the entry below.
Entry C=C(C(=O)CC[C@@H](OC(=O)c1ccccc1-c1ccccc1C(=O)O)c1ccc(OCCO)cc1)C(C)C : is its composite z-score no less than -0.08?
False

###

Assay: modulators of HCV replicon luciferase signal, primary screen, HCV replication inhibitor project, Huh7 cells, luciferase reporter (AID 1109);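 further: huh7 hepatoma cells harbouring a luciferase neomycin HCV replicon reporter; luciferase luminescence as measure of HCV replicon replication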
Conditions: 48 h, higher = more signal
Is z-score at least -0.7? Then Satisfied. If not, Not satisfied.

C=CCNC(=O)[C@H]1[C@@H]2C(=O)O[C@@H](c3ccccc3)[C@@H](c3ccccc3)N2[C@@H](c2ccc(OCCO)cc2)[C@]12C(=O)N(C(=O)OCCOC)c1ccc(C#CCC(C(=O)OC)C(=O)OC)cc12 :: Not satisfied
CN(C)CCCCCCNC(=O)[C@@H]1C[C@@H]2C(=O)N[C@@H](CCCC[N+](C)(C)C)C(=O)N2[C@@H]1c1cccc(OCCO)c1 :: Satisfied
C=C(CCCC)/C(=C/C[C@@H](OC(C)=O)c1cccc(OCCO)c1)c1cc(C(=O)OC)ccc1OC :: Not satisfied

Entry O=C1NC(=O)C2C1C=CC(C(O)C(O)CO)N2Nc1ccccn1 (stereo not drawn) : is its z-score no less than -0.7?
Satisfied

Entry COc1cc(Cc2cc3c(c(-c4ccccc4)n2)[Si](C(C)C)(C(C)C)OC3)cc(OC)c1OC : is its z-score no less than -0.7?
Satisfied

###

Tested on: XIP peptide (Xip251-270) binding
Test: small-molecule binders of XIP peptide, primary screen, biochemical, small-molecule microarray, fluorescence 635/667 nm, 0.1 µg/mL protein (AID 1182)
Conditions: fluorescent protein binding, 635 nm, higher = more signal, called active from +8 up or from −8 down
I'd be grateful if you could share measured composite z-score for these entries.
One number for each entry.

Give composite z-score for each of the items listed below.
1. COC(=O)C(CC#Cc1ccc2c(c1)[C@]1(C(=O)N2)[C@H](C(=O)N2CCCCCCC2)[C@H]2C(=O)O[C@H](c3ccccc3)[C@H](c3ccccc3)N2[C@@H]1c1ccc(OCCO)cc1)C(=O)OC
2. COc1cccc(C)c1NC(=O)O[C@H]1[C@H](OC(=O)Nc2ccccc2)[C@@H](OC(=O)Nc2ccccc2)[C@@H](OC)O[C@@H]1CO
3. Cc1ccc(S(=O)(=O)N2[C@@H](c3ccccc3)C(C(=O)O)=CC[C@H]2c2ccc(F)cc2)cc1

1. 6.2
2. 1.3
3. -0.311

###

Molecular target: Dihydroorotate dehydrogenase (quinone), mitochondrial (Plasmodium falciparum (isolate 3D7)) (UniProt Q08210)
Sequence (Q08210 whole entry, looked up): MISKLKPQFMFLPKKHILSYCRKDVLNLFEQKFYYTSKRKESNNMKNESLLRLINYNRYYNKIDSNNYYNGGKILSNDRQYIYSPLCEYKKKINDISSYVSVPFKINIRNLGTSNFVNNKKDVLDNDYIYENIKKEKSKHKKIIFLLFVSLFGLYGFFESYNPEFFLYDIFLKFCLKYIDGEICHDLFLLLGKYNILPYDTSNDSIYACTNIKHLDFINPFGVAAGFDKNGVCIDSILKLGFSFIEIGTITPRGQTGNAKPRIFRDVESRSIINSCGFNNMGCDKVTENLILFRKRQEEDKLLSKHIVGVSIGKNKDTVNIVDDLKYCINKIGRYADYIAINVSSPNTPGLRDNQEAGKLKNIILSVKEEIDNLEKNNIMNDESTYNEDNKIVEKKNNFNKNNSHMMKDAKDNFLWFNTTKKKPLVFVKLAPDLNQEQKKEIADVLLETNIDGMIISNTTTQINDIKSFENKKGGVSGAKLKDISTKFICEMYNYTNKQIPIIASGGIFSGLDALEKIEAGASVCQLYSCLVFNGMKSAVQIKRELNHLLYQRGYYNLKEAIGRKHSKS
Experiment: PfDHODH enzyme inhibitors, primary screen, biochemical, C-terminal His tag, absorbance 600 nm (AID 1175);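 further: recombinant parasite enzyme with a five histidine tag at its C terminus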
Conditions: DCIP absorbance 600 nm, higher = more signal, called active from +8 up or from −8 down
Activity calls are given as the source filed them.
I'd be grateful if you could share measured composite z-score for these entries.

CN(C)C(=O)[C@]1(CCS(=O)(=O)c2ccccc2)N=C(c2ccc(OCCCO)cc2)O[C@@H]1c1ccccc1CN=[N+]=[N-] :: 0.37 (inactive)

Give composite z-score for each of the items listed below.
1. COc1cccc(C)c1NC(=O)O[C@H]1[C@H](OC(=O)Nc2ccccc2-c2ccccc2)[C@@H](OC(=O)Nc2ccccc2-c2ccccc2)[C@@H](OC)O[C@@H]1CO
2. C=CCOC(=O)[C@@H]1[C@H]2C(=O)O[C@H](c3ccccc3)[C@H](c3ccccc3)N2[C@H](c2ccc(OCCOC(=O)[C@@H]3C[C@@H]4C(=O)N[C@@H](CC(C)C)C(=O)N4[C@@H]3c3ccc(O)cc3)cc2)[C@@]12C(=O)Nc1ccc(I)cc12
3. CCCCC(=C=CC[C@H](O)c1cccc(OCCO)c1)C[C@H](O)c1cc(Cl)cc(Cl)c1O
4. C=CC[C@]12N=C(c3ccc(OCCCO)cc3)O[C@H]1c1ccccc1N(CCC)C2=O
5. COC(=O)c1ccc(OC)c(/C=C\CC(OC(=O)c2ccncc2)c2ccccc2)c1 (stereo not given)
6. O=C1O[C@@H](c2ccccc2)[C@@H](c2ccccc2)N2[C@@H](c3ccccc3OCCO)[C@]3(C(=O)Nc4ccc(C#CC5(O)CCCCCC5)cc43)[C@@H](C(=O)N3CCCCCCC3)[C@H]12
7. CC1C2C(CCCO)=CC(C3C(=O)N(C(N)=O)C(=O)C23)N1Cc1cccc(OC(F)(F)F)c1 (stereo not given)

1: 1.24 (inactive); 2: -1.42 (inactive); 3: 0.189 (inactive); 4: -0.536 (inactive); 5: -6.33 (inactive); 6: -1.03 (inactive); 7: -0.766 (inactive)

Data origin, for the record: PubChem BioAssay
